Experiment Notes: Cytotoxicity against human IMR32 cells assessed as growth inhibition at 10 uM by SRB assay
Assay type: functional
Condition: IMR-32, read-out: GI
Would you kindly list inhibition of growth at 10 µM for each of these molecules?
Numbers only, in %.

C[C@@H]1CC[C@H]2[C@@H](C)C(OCC#Cc3ccc(-c4ccc(C#CCOC5O[C@@H]6O[C@@]7(C)CC[C@H]8[C@H](C)CC[C@@H]([C@H]5C)[C@@]68OO7)cc4)cc3)O[C@@H]3O[C@@]4(C)CC[C@@H]1[C@]32OO4 (some centres not stated) ... 34

What value of inhibition of growth at 10 µM has been recorded for this entry: C[C@@H]1CC[C@H]2[C@@H](C)C(OCCC#Cc3ccc(C#CCCOC4O[C@@H]5O[C@@]6(C)CC[C@H]7[C@H](C)CC[C@@H]([C@H]4C)[C@@]57OO6)s3)O[C@@H]3O[C@@]4(C)CC[C@@H]1[C@]32OO4 (some centres not stated)
26
